- Assay protocol: Displacement of [3H]flumazenil from bovine brain cortex GABAA/Bz receptor
- Design: species or system Bos taurus
Value type: Ki

[O-][n+]1nc2c(Br)cnn2c2cc(I)ccc21 : 0.081 µM
CN1C(=O)CN=C(c2ccccc2)c2cc(Cl)ccc21 : 0.01 µM
Clc1ccc2nnc3c(I)cnn3c2c1 : 0.0228 µM
[O-][n+]1nc2c(Cl)cnn2c2cc(Cl)ccc21 : 0.374 µM

Please examine the following record next.
Problem: Sample "[O-][n+]1nc2c(I)cnn2c2cc(OCCCl)ccc21" — what was its Ki?
Result: 0.062 µM

----------
- Measurement target: GABA-A receptor alpha-5/beta-2/gamma-2 (Rattus norvegicus)
- Assay protocol: Displacement of [3H]Ro-151788 from rat recombinant GABA alpha-5-beta-2-gamma-2 receptor expressed in HEK293 cells
# Ki per record follows
# number only, unit nM dropped from output

These solved cases illustrate the format of a correct answer.
CCOc1ccc2n[n+]([O-])c3c(I)cnn3c2c1 : 70
CCOc1ccc2nnc3c(I)cnn3c2c1 : 95

Please examine the following record next.
Problem: Which measured Ki belongs to "CCOc1ccc2c(c1)n1ncc(I)c1n[n+]2[O-]" , tested on GABA-A receptor alpha-5/beta-2/gamma-2 (Rattus norvegicus)?
Result: 99
